Source listed as PubChem BioAssay (NCI).

# Tested on: ACHN renal
# PROTOCOL DESCRIPTION: NCI tumour cell line growth inhibition, 48 h
MEASUREMENT NAME: TGI (µM)

>>> print(df.to_string())
                                   molecule  measurement_name  value_relation_sign  data_value
0  CC(=O)Nc1c(S(=O)(=O)c2ccccc2)c(C)c(C)n1CCN(C)C               TGI                    >         100
1  CCOC(=O)c1c(N)n(-c2ccccc2)c(=O)n(-c2ccccc2)c1=O               TGI                    >         100
2  Cc1cc2c(c(C=Nc3ccccc3O)c1)OC1(C=C2)Oc2ccccc2C(=O)N1C (stereo not given)               TGI                    =        40.3
3         CCN(Cc1ccc(C)cc1)c1ccc(CO)c(Cl)c1               TGI                    =        23.2
4  Fc1cc2[nH]ncc2c2c3c(c(-c4cn[nH]c4C(F)(F)F)nc12)CCCC3               TGI                    =        7.58
5  C#C[C@]1(O)CC[C@H]2[C@@H]3CCC4=C/C(=N/OCCN(C)C)CC[C@]4(C)[C@H]3CC[C@@]21C               TGI                    >         100
6  c1cc(NNc2cccc(-c3nn[nH]n3)c2)cc(-c2nn[nH]n2)c1               TGI                    >         100
7            C/C(=N\NC(=S)N1CCCCC1)c1ccccn1               TGI                    =        7.34
8  C/C(=C1/N=C(c2cc([N+](=O)[O-])ccc2Cl)N(c2cccc(C)c2)C1=O)c1cc2ccccc2oc1=O               TGI                    >         100
9  CC(C)(Br)C(=O)N1CCN(C(c2ccccc2)c2ccccc2)CC1               TGI                    >         100
